System: Lolium perenne (LOLPE)
Experiment: Glasshouse assay for herbicidal activity (pre- and post-emergence), percentage phytotoxicity
Format: in vivo
Conditions: Lolium perenne, pre-emergence, 480 h, PRE-emergence, rate 250 g/ha, visual score 20 DAA (100%=total damage, 0%=no damage); read-out: Pre-emergence herbicidal activity (percentage phytotoxicity) LOLPE PRE
Procedure: Test—Glasshouse Assay for Herbicidal Activity Seeds of a variety of monocotyledonous and dicotyledonous test plants are sown in standard soil in pots. The plants are cultivated for one day (for pre-emergence (PRE)) or for about 12 days (for post-emergence (POST)) under controlled conditions in a glasshouse (warm climate species at 24/18° C., cool climate species at 20/16° C., both at day/night; 16 hours light; 65% humidity). […]
Record class 1 whenever pest or weed control at 250 g/ha is at 90% or higher; record class 0 when lower.

{"molecule": "CCc1cc(OCC(F)(F)F)cc(C)c1C1C(=O)CC(CC(=O)N(C)C(C)(C)C)C1=O (stereo not shown)", "label_class": "class 1"}
{"molecule": "CCc1cc(OCC(F)(F)F)cc(C)c1C1C(=O)CC(CC(=O)N(C)CC)C1=O (stereo not shown)", "label_class": "class 1"}
{"molecule": "Cc1cc(-c2ncc(F)cn2)cc(C)c1C1C(=O)CC(CC(=O)NC/C=C\\Br)C1=O (stereo not shown)", "label_class": "class 1"}
{"molecule": "Cc1cc(-c2ncc(F)cn2)cc(C)c1C1C(=O)CC(CC(=O)NC(C)C)C1=O (stereo not shown)", "label_class": "class 1"}
{"molecule": "C/C=C/c1cc(C)c(C2C(=O)CC(CC(=O)NCc3ccc(OC)cc3)C2=O)c(C)c1 (stereo not shown)", "label_class": "class 0"}
{"molecule": "Cc1cc(-c2ncc(F)cn2)cc(C)c1C1C(=O)CC(CC(=O)NC/C=C/Cl)C1=O (stereo not shown)", "label_class": "class 1"}
{"molecule": "Cc1cc(OCC(F)(F)F)cc(C)c1C1C(=O)CC(CC(=O)NC(C)C)C1=O (stereo not shown)", "label_class": "class 0"}
{"molecule": "CCc1cc(-n2cc(Cl)cn2)cc(C)c1C1C(=O)CC(CC(=O)NC(C)C)C1=O (stereo not shown)", "label_class": "class 1"}

Q) Please check the record Cc1cc(-n2cc(Cl)cn2)cc(C)c1C1C(=O)CC(CC(=O)NCc2cccc(Cl)c2)C1=O (stereo not shown) and state if its pest or weed control at 250 g/ha is at or above 90%.
A) class 0

Q) Please check the record Cc1cc(-c2ncc(F)cn2)cc(C)c1C1C(=O)CC(CC(=O)NCc2ccc(C#N)cc2)C1=O (stereo not shown) and state if its pest or weed control at 250 g/ha is at or above 90%.
A) class 0

Q) Please check the record C/C=C/c1cc(C)c(C2C(=O)CC(CC(=O)NCc3ccccc3)C2=O)c(CC)c1 (stereo not shown) and state if its pest or weed control at 250 g/ha is at or above 90%.
A) class 0

Q) Please check the record Cc1cc(-c2ncc(F)cn2)cc(C)c1C1C(=O)CC(CC(=O)NCc2ccccc2)C1=O (stereo not shown) and state if its pest or weed control at 250 g/ha is at or above 90%.
A) class 0

Q) Please check the record C/C=C/c1cc(C)c(C2C(=O)CC(CC(=O)NCC3CC3)C2=O)c(CC)c1 (stereo not shown) and state if its pest or weed control at 250 g/ha is at or above 90%.
A) class 1

Q) Please check the record Cc1cc(-c2ncc(F)cn2)cc(C)c1C1C(=O)CC(CC(=O)N(C)C)C1=O (stereo not shown) and state if its pest or weed control at 250 g/ha is at or above 90%.
A) class 1
